- System: RXF 393 renal
- MEASUREMENT PROTOCOL: NCI tumour cell line growth inhibition, 48 h
VALUE KIND: TGI

**Q:** Given the entry `CNC(=O)N(CCC#N)CCN(C(=O)NC)c1ccccc1` , what TGI was observed with RXF 393 renal?
**A:** > 100 µM

**Q:** Given the entry CC(=O)C(=O)NC1/C=C(C)\C=C/C(O)C/C=C(C)\C=C/C(O)CC2OC(=O)C1(C)C(=O)C2C (stereo not drawn) , what TGI was observed with RXF 393 renal?
**A:** > 100 µM

**Q:** Given the entry `CC1(C)NC(=O)N(CCCCCCN2C(=O)NC(C)(C)C2=O)C1=O` , what TGI was observed with RXF 393 renal?
**A:** > 100 µM
